- Target Desc: CDK12/CycK (Homo sapiens)
- Protocol: Inhibition of CDK12 (ADP-Glo kinase assay)
- Condition Notes: 60 nM CDK12/CycK, 30 minutes pre-incubation, 1 μM ATP, 0.5 μM RBER-IRStide substrate, 1 h at 25° C., read-out: CDK12/cyclin K IC50
pIC50: −log10 of the molar value.
This listing pairs compounds with measured pIC50.

Some entries whose results are on file:
## Input Read off the recorded pIC50 for `C=CC(=O)N1CCC[C@H]1C(=O)NCCc1cc2c(-c3cccnc3)ccnc2[nH]1`
## Output 4.52 to 6.00

## Input Report pIC50 for `C=CC(=O)N1CCC[C@@H]1C(=O)NCc1cc2c(-c3cnn4ncccc34)ccnc2[nH]1`
## Output 4.52 to 6.00

## Input Supply pIC50 value. Item: `c1cncc(Cn2cc(-c3ccnc4[nH]ccc34)nn2)c1`
## Output 4.52 to 6.00

## Input Read the entry C#CC(=O)Nc1cccc(C(=O)N2CCC(c3cc4c(-c5cnn6ncccc56)ccnc4[nH]3)C2)c1 (stereo not drawn) and write its reported pIC50.
## Output > 7.00

## Input Hello, please tell me recorded pIC50 for this one: `C=CC(=O)N1CCC[C@@H]1C(=O)NCCc1cc2c(-c3cnn4ncccc34)ccnc2[nH]1`
## Output > 7.00

With those in mind, consider the next compound.
## Input Note down pIC50 recorded for C=CC(=O)N1CCC1C(=O)NCCc1cc2c(-c3cnn4ncccc34)ccnc2[nH]1 (single isomer, unassigned) [Example 39]
## Output > 7.00

* * *

- Target Desc: CDK12/CycK (Homo sapiens, UniProt Q9NYV4)
- Sequence (Q9NYV4 whole entry): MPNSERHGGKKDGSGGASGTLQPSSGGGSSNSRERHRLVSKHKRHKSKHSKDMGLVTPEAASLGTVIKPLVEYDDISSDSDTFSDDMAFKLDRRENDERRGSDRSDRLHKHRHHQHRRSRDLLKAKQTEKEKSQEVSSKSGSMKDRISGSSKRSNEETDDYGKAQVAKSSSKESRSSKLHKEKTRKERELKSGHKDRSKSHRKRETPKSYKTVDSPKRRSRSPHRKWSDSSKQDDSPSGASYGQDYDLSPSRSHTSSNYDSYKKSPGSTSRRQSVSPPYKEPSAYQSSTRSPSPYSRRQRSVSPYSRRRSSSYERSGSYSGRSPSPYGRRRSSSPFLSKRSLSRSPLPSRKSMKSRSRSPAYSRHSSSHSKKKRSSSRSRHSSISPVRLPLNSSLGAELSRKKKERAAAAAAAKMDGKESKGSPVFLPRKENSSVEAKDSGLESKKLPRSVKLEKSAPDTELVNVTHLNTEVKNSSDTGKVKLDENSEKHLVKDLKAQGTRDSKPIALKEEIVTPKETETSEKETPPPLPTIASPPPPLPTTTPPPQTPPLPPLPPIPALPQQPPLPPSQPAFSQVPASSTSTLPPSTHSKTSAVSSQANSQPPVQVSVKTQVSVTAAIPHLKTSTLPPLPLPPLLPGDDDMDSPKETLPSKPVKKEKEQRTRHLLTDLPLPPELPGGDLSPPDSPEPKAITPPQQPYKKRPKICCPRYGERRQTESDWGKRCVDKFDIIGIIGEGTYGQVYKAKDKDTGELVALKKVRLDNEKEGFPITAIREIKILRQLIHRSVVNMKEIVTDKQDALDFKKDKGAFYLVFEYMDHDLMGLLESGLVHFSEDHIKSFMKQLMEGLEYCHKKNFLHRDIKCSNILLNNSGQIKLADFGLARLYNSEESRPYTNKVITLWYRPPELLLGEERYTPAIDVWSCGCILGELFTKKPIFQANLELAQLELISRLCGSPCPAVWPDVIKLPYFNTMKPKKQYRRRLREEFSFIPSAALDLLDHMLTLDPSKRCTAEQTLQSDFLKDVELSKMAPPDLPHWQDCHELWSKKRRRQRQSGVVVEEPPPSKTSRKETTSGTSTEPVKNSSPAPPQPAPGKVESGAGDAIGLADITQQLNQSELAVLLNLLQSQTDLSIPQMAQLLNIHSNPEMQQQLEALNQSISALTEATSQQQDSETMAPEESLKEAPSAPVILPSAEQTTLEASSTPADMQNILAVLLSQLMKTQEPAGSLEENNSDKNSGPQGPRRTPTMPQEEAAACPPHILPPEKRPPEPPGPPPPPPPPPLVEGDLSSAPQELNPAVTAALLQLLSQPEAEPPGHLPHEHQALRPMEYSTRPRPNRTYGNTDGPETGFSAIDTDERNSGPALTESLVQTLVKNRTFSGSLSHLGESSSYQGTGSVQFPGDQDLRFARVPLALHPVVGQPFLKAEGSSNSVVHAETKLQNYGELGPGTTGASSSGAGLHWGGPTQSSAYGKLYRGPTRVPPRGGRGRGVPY
- Sequence (O75909 whole entry partner): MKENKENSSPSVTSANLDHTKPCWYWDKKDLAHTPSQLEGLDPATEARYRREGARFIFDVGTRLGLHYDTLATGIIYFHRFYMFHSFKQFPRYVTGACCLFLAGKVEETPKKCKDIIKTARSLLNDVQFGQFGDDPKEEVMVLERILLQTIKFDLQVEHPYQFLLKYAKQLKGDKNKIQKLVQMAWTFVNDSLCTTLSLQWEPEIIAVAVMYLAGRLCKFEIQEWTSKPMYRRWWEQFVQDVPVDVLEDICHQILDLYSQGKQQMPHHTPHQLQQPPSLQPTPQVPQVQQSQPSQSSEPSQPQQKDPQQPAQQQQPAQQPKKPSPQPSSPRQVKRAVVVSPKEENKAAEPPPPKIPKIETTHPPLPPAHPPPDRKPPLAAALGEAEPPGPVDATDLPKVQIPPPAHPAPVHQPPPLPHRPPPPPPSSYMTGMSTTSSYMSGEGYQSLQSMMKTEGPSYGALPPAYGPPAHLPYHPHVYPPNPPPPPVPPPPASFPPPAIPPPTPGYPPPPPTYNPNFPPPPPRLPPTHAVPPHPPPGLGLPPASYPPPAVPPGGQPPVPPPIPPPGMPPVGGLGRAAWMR
- Protocol: Inhibition of CDK12 (ADP-Glo kinase assay)
- Condition Notes: 60 nM CDK12/CycK, 30 minutes pre-incubation, 1 μM ATP, 0.5 μM RBER-IRStide substrate, 1 h at 25° C., read-out: CDK12/cyclin K IC50
pIC50: −log10 of the molar value. Where a name gives a salt, the structure may show the parent alone.
pIC50 reference

Guide cases for pIC50, answers given:
## Input Determine from records and report pIC50 for `O=C(NCCc1cc2c(-c3cnn4ncccc34)ccnc2[nH]1)[C@@H]1CCCN1C(=O)C1=CCCC1`
## Output 6.00 to 7.00

## Input Look up and report measured pIC50 for this entry: `C=CC(=O)N1CCC[C@@H](C(=O)NCc2cc3c(-c4cnn5ncccc45)ccnc3[nH]2)C1`
## Output 4.52 to 6.00

## Input For `C=CC(=O)N[C@H]1COC[C@@H]1C(=O)NCc1cc2c(-c3cnn4ncccc34)ccnc2[nH]1` , write its pIC50.
## Output 4.52 to 6.00

## Input Output pIC50 of `C=CC(=O)N[C@H]1CC[C@H](C(=O)NCc2cc3c(-c4cnn5ncccc45)ccnc3[nH]2)CC1`
## Output 4.52 to 6.00

## Input Entry C#CC(=O)Nc1ccc(C(=O)N2CCC(c3cc4c(-c5cnn6ncccc56)ccnc4[nH]3)C2)cc1 (stereo not drawn) needs its pIC50 filled in; supply it.
## Output > 7.00

## Input Please report the measured pIC50 for CN(C)CC(=O)NCc1cc2c(-c3cnn4ncccc34)ccnc2[nH]1 [Example 117, Formate Salt]
## Output 4.52 to 6.00

Further cases:
## Input Return reported pIC50. Input molecule: `c1cnn2ncc(-c3ccnc4[nH]ccc34)c2c1`
## Output 6.00 to 7.00

## Input Note down pIC50 recorded for `O=C(NCCc1cc2c(-c3cnn4ncccc34)ccnc2[nH]1)[C@@H]1CCCN1C(=O)/C=C/CN1CCOCC1`
## Output 4.52 to 6.00

## Input Using known records, supply pIC50 for `COc1cnn2ncc(-c3ccnc4[nH]ccc34)c2c1`
## Output 4.52 to 6.00

## Input Note down pIC50 recorded for `C=CC(=O)NCc1cccc(C(=O)NCc2cc3c(-c4cnn5ncccc45)ccnc3[nH]2)c1`
## Output 4.52 to 6.00

## Input Fill in reported pIC50 for this entry: O=C([C@@H]1CCCN1C(=O)CCl)N1CCC(c2cc3c(-c4cnn5ncccc45)ccnc3[nH]2)C1 (stereo partly drawn)
## Output > 7.00

## Input Kindly indicate its recorded pIC50. Item: `C=CC(=O)Nc1ccc(C(=O)N(C)Cc2cc3c(-c4cnn5ncccc45)ccnc3[nH]2)cc1`
## Output > 7.00

## Input Provide measured pIC50 value, entry: `Nc1cccc(-c2cc3c(-c4cnn5ncccc45)ccnc3[nH]2)c1`
## Output > 7.00

## Input Assign pIC50 to the following record: `c1cnn2ncc(-c3ccnc4[nH]c(CN5CCOCC5)cc34)c2c1`
## Output 4.52 to 6.00

## Input Dear colleague, please send me the reported pIC50 for CC1(C)OCC(COc2cnn3ncc(-c4ccnc5[nH]ccc45)c3c2)O1 (stereo not drawn) when you can.
## Output 4.52 to 6.00
